Values from patent US5552156A

EXPERIMENT: HPLC assay of lactone ring hydrolysis, free in PBS or associated with liposomes or micelles
Assay type: physicochemical
ASSAY_SETUP: pH 7.4; free in PBS, less than 1 hour; read-out: drug hydrolyzed in less than 1 hour
Description: A high performance liquid chromatography assay was used to determine the rate of hydrolysis of camptothecin and topotecan free in aqueous solution and to compare such rates with the rate of hydrolysis for the same drugs when bound to the DMPG and DMPC liposome membranes. […] A Spectroflow model 980 fluorescence detector coupled to an HP 3392A integrator which acquired and processed the chromatograms, was used. […]

{"columns": ["COMPOUND", "degraded at 1 h"],
 "data": [
  ["CCC1(O)C(=O)OCc2c1cc1n(c2=O)Cc2cc3cc4c(cc3nc2-1)OCO4 (stereo not shown)", "> 70%"]
]}
